Catalogue of IC50 readings, one per entry.
molecular target: JAK3 (Homo sapiens (Human), UniProt P52333); assay: JAK Caliper Enzyme Assay at 1 mM ATP, JAK3; type: biochemical
Sequence (P52333 822-1111): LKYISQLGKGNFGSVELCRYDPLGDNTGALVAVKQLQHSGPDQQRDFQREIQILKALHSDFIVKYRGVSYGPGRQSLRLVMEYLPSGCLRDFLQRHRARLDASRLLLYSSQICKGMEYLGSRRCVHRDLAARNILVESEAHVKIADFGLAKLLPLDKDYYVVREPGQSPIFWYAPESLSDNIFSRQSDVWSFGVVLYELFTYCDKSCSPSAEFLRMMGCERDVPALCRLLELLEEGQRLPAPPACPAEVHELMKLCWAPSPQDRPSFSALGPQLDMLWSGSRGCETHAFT

Before answering, review these 5 worked examples.
CO[C@H]1C[C@@](CC#N)(n2ccc(-c3nc(-c4cc(CO)n[nH]4)cc4ncccc34)n2)C1 : > 10 µM
C[C@]1(C#N)C[C@](CC#N)(n2ccc(-c3nc(-c4ccnc(N)c4)cc4ncccc34)n2)C1 : > 10 µM
CS(=O)(=O)N1CC(CC#N)(n2ccc(-c3cc(-c4ccc(=O)[nH]c4)cc4ncccc34)n2)C1 : > 10 µM
Cc1cncc(-c2cc3ncccc3c(-c3ccn(C4(CC#N)CN(CC(F)(F)F)C4)n3)n2)c1 : > 10 µM
CCCS(=O)(=O)N1CC(CC#N)(n2ccc(-c3nc(-c4cnn(C)c4)cc4ncccc34)n2)C1 : > 10 µM

## Input What does the record list as IC50 for `Cc1cc(-c2cc3ncccc3c(-c3ccn(C4(CC#N)CN(S(C)(=O)=O)C4)n3)n2)ccn1` ?
## Output > 10 µM

----------
molecular target: JAK3 (Homo sapiens (Human)); test: JAK Caliper Enzyme Assay at 1 mM ATP, JAK3; assay type: biochemical
Catalogue of IC50 readings, one per entry.

Before answering, review these 3 worked examples.
Cc1nc(-c2cc3ncccc3c(-c3ccn(C4(CC#N)CN(CC(F)(F)F)C4)n3)n2)cn1C [Example 151] : > 10 µM
CO[C@H]1C[C@@](CC#N)(n2ccc(-c3nc(-c4cnn(C)c4)cc4ncccc34)n2)C1 [Example 110] : > 10 µM
N#CC[C@]1(n2ccc(-c3nc(-c4ccc(N)nc4)cc4ncccc34)n2)C[C@@H](C#N)C1 [Example 195] : 2.06 µM

## Input # value lookup — system JAK3 (Homo sapiens (Human)), readout IC50, item CO[C@H]1C[C@](CC#N)(n2ccc(-c3nc(-c4ccn[nH]4)cc4ncccc34)n2)C1 [Example 30]
## Output > 10 µM

## Input Okay, and CS(=O)(=O)c1ccc(-c2cc(-c3cnn([C@]4(CC#N)C[C@H](C#N)C4)n3)c3cccnc3c2)nc1 [Example 368] ?
## Output 7.25 µM

## Input Okay, and CC(C)(O)[C@H]1C[C@@](CC#N)(n2ccc(-c3nc(-c4cc[nH]n4)cc4ncccc34)n2)C1 [Example 40] ?
## Output > 10 µM

## Input Okay, and Cn1ncc(-c2cc3ncccc3c(-c3ccn(C4(CC#N)CN(CC(F)(F)F)C4)n3)n2)n1 [Example 154] ?
## Output > 10 µM

----------
biological target: TYK2 (Homo sapiens (Human)); assay: JAK Caliper Enzyme Assay at 1 mM ATP, TYK2; type: biochemical
Sequence (P29597 897-1176): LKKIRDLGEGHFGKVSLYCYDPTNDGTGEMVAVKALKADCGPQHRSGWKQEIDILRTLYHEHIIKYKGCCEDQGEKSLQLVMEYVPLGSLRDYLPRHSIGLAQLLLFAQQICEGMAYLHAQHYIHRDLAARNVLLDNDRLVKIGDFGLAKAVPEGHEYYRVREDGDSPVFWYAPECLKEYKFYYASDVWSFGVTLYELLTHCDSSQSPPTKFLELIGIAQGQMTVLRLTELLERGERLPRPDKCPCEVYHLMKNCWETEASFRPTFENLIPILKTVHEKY
Catalogue of IC50 readings, one per entry.
Give a bare numeral; the unit nM is implied.

Before answering, review these 3 worked examples.
CO[C@H]1C[C@](CC#N)(n2ccc(-c3nc(-c4ccn[nH]4)cc4ncccc34)n2)C1 : 75
CS(=O)(=O)Nc1ccc(-c2cc3ncccc3c(-c3ccn([C@]4(CC#N)C[C@H](C#N)C4)n3)n2)cc1 : 20
Cc1cc(-c2cc(-c3cnn(C4(CC#N)CN(S(C)(=O)=O)C4)n3)c3cccnc3c2)ccn1 : 130

## Input What does the record list as IC50 for `CS(=O)(=O)N1CC(CC#N)(n2ccc(-c3nc(-c4cc(F)ccc4O)cc4ncccc34)n2)C1` ?
## Output 242
